In this section, each of the molecules is paired with its reported Herbicidal Effectiveness - Pre, M.
Tested on: Mustard (Brassica arvensis)
Assay Details: Pre-Emergent herbicidal test
Format: in vivo
Experimental Context: 33 micrograms/cm^2, 3 weeks, 0-to-100 scale, 100 = complete kill
Write the value as a bare number.

ClC1=NSS2=C1N=C(COc1ccc(Cl)cc1Cl)O2 (stereo not shown) = 100
Cc1cc(Cl)ccc1OCC1=NC2=S(O1)SN=C2Cl (stereo not shown) = 100
ClC1=NSS2=C1N=C(COc1ccc(Cl)cc1)O2 (stereo not shown) = 95

Now for another entry.
// Herbicidal Effectiveness - Pre, M lookup, key: ClC1=NSS2=C1N=C(COc1cc(Cl)ccc1Cl)O2 (stereo not shown)
87
